OBSERVATION_TYPE: melting point

INSERT INTO assay_data (molecule, observation_type, result) VALUES
  ('CCCOc1ccc(-c2nn(-c3ccc(Cl)cc3)cc2Cn2cncn2)cc1 [12f]', 'melting point', '114 to 116 °C'),
  ('COc1ccc(-c2nn(-c3ccc(F)cc3)cc2Cn2cncn2)cc1 [12a]', 'melting point', '150 to 152 °C'),
  ('CCCOc1ccc(-c2nn(-c3ccc(F)cc3)cc2Cn2cncn2)cc1 [12e]', 'melting point', '120 to 122 °C'),
  ('CC(C)Oc1ccc(-c2nn(-c3ccc(Cl)cc3)cc2Cn2cncn2)cc1 [12h]', 'melting point', '98 to 100 °C');

Problem: Indicate its recorded melting point; the molecule in question is COc1ccc(-c2nn(-c3ccc(Cl)cc3)cc2Cn2ccnc2)cc1 [11b]
Solution: 136 to 138 °C

Problem: Indicate its recorded melting point; the molecule in question is COc1ccc(-c2nn(-c3ccc(F)cc3)cc2Cn2ccnc2)cc1 [11a]
Solution: 150 to 152 °C
